B1: Formin-binding protein 4, residues 200 to 261; numbered along this chain, Q8N3X1 (parent)
chain: SGWQYDTQCSLAGVGIEMGDWQEVWDENTGCYYYWNTQTNEVTWELPQYLATQVQGLQHYQP

variants of: B1; test: abundance fitness (aPCA) (normalised: wild type 0, dead -1); higher = more abundant; growth selection in yeast, the domain comes from the species named; details: Homo sapiens
measureName: abundance fitness
Kindly provide the number alone.

SGWQYDTQCSLAGVGIEMGDWQEVWDENTGCYYYWNTQTNLVTWELPQYLATQVQGLQHYQP [E41L]	-0.111
SGWQHDTQCSLAGVGIEMGDWQEVWDENTGCYYYWNTQTNEVTWELPQYLATQVQGLQHYQP [Y5H]	-0.052

Then this variant:
Quick check: abundance fitness of SGWQYDTQDSLAGVGIEMGDWQEVWDENTGCYYYWNTQTNEVTWELPQYLATQVQGLQHYQP [C9D] ?
0.052

Measured values drawn from the Human Domainome abundance scans (Beltran et al. 2025) for this set.
